Tested on: HCC-2998 colon
assayDetails: NCI tumour cell line growth inhibition, 48 h
endpoint: TGI

[[record]]
compound = "CCOS(=O)(=O)c1ccc(-c2c3nc(c(-c4ccc(S(=O)(=O)OCC)cc4)c4ccc([nH]4)c(-c4ccc(S(=O)(=O)OCC)cc4)c4nc(c(-c5ccc(S(=O)(=O)OCC)cc5)c5ccc2[nH]5)C=C4)C=C3)cc1"
targetdesc = "HCC-2998 colon"
result = "> 31.6 µM"

[[record]]
compound = "COc1ccc(Nc2nc(N)c(C(=O)c3ccc(Cl)cc3)s2)cc1"
targetdesc = "HCC-2998 colon"
result = "3.47 µM"

[[record]]
compound = "O=S(O)c1cc(Cl)c(O)c(Cl)c1"
targetdesc = "HCC-2998 colon"
result = "> 100 µM"

[[record]]
compound = "CN1CCN(c2nc(N)c(Br)c(Cl)n2)CC1"
targetdesc = "HCC-2998 colon"
result = "> 100 µM"

[[record]]
compound = "COc1cc(C(=O)O[C@H](C(=O)NCCCCNC(=O)[C@@H](OC(=O)c2cc(OC)cc3c(C)cccc23)[C@]2(C)CO2)[C@]2(C)CO2)c2cccc(C)c2c1"
targetdesc = "HCC-2998 colon"
result = "0.343 µM"

[[record]]
compound = "CCOC(=O)N1CCC2(CC1)C[C@@](C(C)=O)(c1ccccc1)C(C)O2 (some centres not stated)"
targetdesc = "HCC-2998 colon"
result = "> 100 µM"

[[record]]
compound = "CC(=O)CC(=O)Nc1ccccc1C(F)(F)F"
targetdesc = "HCC-2998 colon"
result = "> 100 µM"

